assay: folding enthalpy; higher = less favourable; fluorescence melt of hairpins on a sequencing array, two-state fit; conditions: sodium 0.088 M
Quick rule: folding enthalpy of at least -30 kcal/mol means TRUE, below that means FALSE.

Known results for sequences:
GATCCACTAATGGATC ((((((....))))))    FALSE
GGTGACCGAAAGGTAACC (((.(((....))).)))    FALSE
GACGCCGAAAGGCGAGTC ((((((....)))..)))    TRUE
GCAATGCGAAAGCATCGC ((.((((....)))).))    TRUE
GATCTTGCAAAGATC ((((((...))))))    FALSE

Query: Reported folding enthalpy reaches at least -30 kcal/mol for GGCATAGGAAACTATGCC (((((((....))))))) ?
Reply: FALSE

Query: How about this sequence: CGCTGACGGAAACGTGCG (((..(((....))))))
Reply: TRUE

Query: // same read-out, input: GATCAGTCACCTGATC ((((((....))))))
Reply: FALSE

Query: Further, for GATCGCAGTGGCGATC ((((((....)))))) ?
Reply: FALSE

Query: Same question for GTCTTAGGAAACTAGGAC (((.(((....))).))) please.
Reply: FALSE

Query: Moving on to the next sequence: GATCTGTTTCAGATC ((((((...))))))
Reply: FALSE

Query: Same for GATCCACACTGGATC ((((((...))))))
Reply: FALSE

Query: Next record, please: GTGTCTGGAAACAAACAC ((((.((....)).))))
Reply: TRUE

Query: Try GCCATCGAAAGATTGGGC ((((((....)))..))) next.
Reply: TRUE

Query: What about this sequence? GCTCTGCGAAAGCTGCGC ((.(.((....)).).))
Reply: TRUE

Query: Here is the next sequence: GATCTCGTAGAGATC ((((((...))))))
Reply: FALSE

Query: Next record, please: GATCTACATTAGATC ((((((...))))))
Reply: TRUE

====

assay: folding enthalpy; higher = less favourable; fluorescence melt of hairpins on a sequencing array, two-state fit; conditions: sodium 0.088 M
The entries below come with measured folding enthalpy values attached.
Numbers only; they are read as kcal/mol.

Guide cases for folding enthalpy, answers given:
GGCTACCGAAAGGTGCC (((.(((....))))))    -31.3
GCGATCGAAAGATCACGC ((((((....)))..)))    -21.7
GTAACACCGAAAGGTTAC (((..(((....))))))    -14.8
GCTGTGCGAAAGCCAAGC (((..((....))..)))    -19.2
GCGCTCCGAAAGGAACGC (((.(((....))).)))    -46.8
GACAAACGAAAGTTAGTC (((.(((....))).)))    -30.9
GTTTTGGGAAACTAAAAC (((((.(....).)))))    -24.3
GTTCTCGAAAGAGAAAC ((((((....))).)))    -17
GTGCGTGGAAACGCGCAC (((((.(....).)))))    -23.7
GCAATTGGAAACAATTAC (.(((((....))))).)    -15.1

Query: I'd like to know its folding enthalpy. The sequence in question is GGATCCCGAAAGGGTCC (((.(((....))))))
Reply: -27.8

Query: Likewise for GGTCTTGGAAACAAAACC (((.(((....))).))) ?
Reply: -14.5

====

assay: melting temperature; fluorescence melt of hairpins on a sequencing array, two-state fit, raised by 9.35 °C to match UV melts; details: sodium 0.088 M
Experimental readout: Tm (°C)
State the answer as a number, implicitly in °C.

Reference set, count: 2
GCTTTCGCGAAAGCGAGC (((..(((....))))))    48.9
GCAGCCGAAAGGCGTTGC ((((((....)))..)))    53.3

Query: What Tm value was documented for this sequence, GCTCGGGGAAACTCGGGC ((.((.(....).)).)) ?
Reply: 46.6

Query: Same again, this time with GATCGTGCACACGATC ((((((....))))))
Reply: 64.7

Query: Note, next up: GGGATACCGAAAGGTCCC (((..(((....))))))
Reply: 45.2

Query: Quick one: GGTCTCGAAAGAGCTACC ((((((....)))..)))
Reply: 36

Query: Now try GTGCGTCGAAAGACACAC (((.(((....))).))) .
Reply: 53.5

Query: Continue with GTGGGCGAAAGCCCCAC ((((((....))).)))
Reply: 60.2

Query: Try this sequence too: GTAAGGGGAAACCTTTAC ((((.((....)).))))
Reply: 33.9

====

experiment: folding enthalpy; higher = less favourable; fluorescence melt of hairpins on a sequencing array, two-state fit; details: sodium 0.088 M
Label scheme for folding enthalpy: lower than -20 kcal/mol is -1, -20 kcal/mol and above is 1.

GATCTGCGAAAGCATATC (((.(((....))).)))    -1

Query: Does the reported folding enthalpy for GAGTACCGAAAGGTGCTC (((.(((....))).))) fall at or above the -20 kcal/mol mark?
Reply: -1

Query: Thanks! And TCGGAGAAATCCGA (((((....))))) ?
Reply: 1

Query: Subsequent entry: GCAAACGAAAGTTGCTGC ((((((....)))..)))
Reply: -1

Query: Moving on to the next sequence: GATCCAGCAATGGATC ((((((....))))))
Reply: -1

Query: GTAAGAGGAAACTCTCAC ((.((((....)))).)) , same question.
Reply: 1

Query: # iterate: GATCACCCGGTGATC ((((((...))))))
Reply: -1

====

test: melting temperature; fluorescence melt of hairpins on a sequencing array, two-state fit, raised by 9.35 °C to match UV melts; conditions: sodium 0.088 M
Experimental readout: Tm (°C)
Give the number; °C is assumed, so skip it.

These solved cases illustrate the format of a correct answer.
CGCTGCCGGAAACGGGCG (((..(((....))))))    46.7
GCGGCGCGAAAGCCCGGC ((.(.((....)).).))    59.8
GAAAACCGAAAGGTGTTC (((.(((....))).)))    44.9
GTAAGGGGAAACTCTTAC (((((.(....).)))))    37.6
GCGTAGCGAAAGCTGTGC ((..(((....)))..))    46.1

// moving on: another record for Tm
Query: What does the record list as Tm for GATCATTAATATGATC ((((((....)))))) ?
Reply: 45.5

====

test: folding enthalpy; higher = less favourable; fluorescence melt of hairpins on a sequencing array, two-state fit; conditions: sodium 0.088 M
Each record's folding enthalpy is compared with L (below -30 kcal/mol), M (-30 kcal/mol to below -20 kcal/mol), H (-20 kcal/mol or more) to give its class.

Query: Categorize the following entry: GTATGAGAAATCATAC ((((((....))))))
Reply: L

Query: Try GATCCGCAGTCGGATC ((((((....)))))) next.
Reply: L

Query: What do you get for GACCGTCCGAAAGGAGTC (((..(((....)))))) ?
Reply: H

Query: What would you report for GTAGGGGGAAACCTCTGC (.((.((....)).)).) ?
Reply: H

Query: And then GCGAGCGGAAACGCCCAC (.(.(((....))).).) , what is it?
Reply: H

Query: Moving on to GGTCTCGAAAGAGCACC ((((((....))).)))
Reply: M

Query: And for GATCACCGCCGTGATC ((((((....)))))) ?
Reply: L

Query: Next entry: GGGTATACGAAAGTACCC (((..(((....))))))
Reply: M

Query: Same read-out for GTAAACGGAAACGTTTAC (((((((....))))))) ?
Reply: L

Query: Check GAGCACGAAAGTGGGCTC ((((((....)))..))) too.
Reply: M

Query: Would you mind doing GATCATATCAATGATC ((((((....)))))) as well?
Reply: M

====

experiment: folding enthalpy; higher = less favourable; fluorescence melt of hairpins on a sequencing array, two-state fit; details: sodium 0.088 M
Experimental readout: folding enthalpy (kcal/mol)
Give a bare numeral; the unit kcal/mol is implied.

Consider the reported folding enthalpy for these sequences:
GGGCGACGAAAGTCTCCC (((.(((....))).)))    -43.2
GTGTCCGCGAAAGCGCAC (((..(((....))))))    -14.1
GGGACACCGAAAGGTCCC (((..(((....))))))    -27.7
GCCCTCCCGAAAGGGGGC (((..(((....))))))    -16.1
GCTACCGAAAGGTCAGC ((((((....))).)))    -21.4
GATCAGTAGTCTGATC ((((((....))))))    -37
GCTTTACGAAAGTATAGC (((.(((....))).)))    -34.1
GAGTGACGAAAGTCGCTC (((.(((....))).)))    -38.9

Query: Given the sequence GGATCTCGAAAGAGCTCC (((.(((....))).))) , what is its reported folding enthalpy?
Reply: -31.7

Query: What do we get for GTTGACGGAAACGTCAAC (((((((....))))))) ?
Reply: -33.6

Query: Cool, now GCGTCGCGAAAGCGCAGC ((..(((....)))..))
Reply: -19.9

Query: Lookup GTACTCGAAAGAGGCTAC ((((((....)))..)))
Reply: -14.3

Query: Now the sequence GGCCATGGAAACATGGTC (.(((((....))))).)
Reply: -36.2

Query: What do we get for GATCTGTACCAGATC ((((((...)))))) ?
Reply: -31.9

Query: Quick one: GCGTATGACGC ((((...))))
Reply: -17.5

Query: Check GGTCCTGGAAACAGGGTC (..((((....))))..) too.
Reply: -16.1
